biological target: Xanthine dehydrogenase/oxidase (Bos taurus); experiment: Activity at bovine milk xanthine oxidase assessed as reduction of cytochrome c and phenazine methosulfate; settings: cattle
Sequence (P80457 whole entry): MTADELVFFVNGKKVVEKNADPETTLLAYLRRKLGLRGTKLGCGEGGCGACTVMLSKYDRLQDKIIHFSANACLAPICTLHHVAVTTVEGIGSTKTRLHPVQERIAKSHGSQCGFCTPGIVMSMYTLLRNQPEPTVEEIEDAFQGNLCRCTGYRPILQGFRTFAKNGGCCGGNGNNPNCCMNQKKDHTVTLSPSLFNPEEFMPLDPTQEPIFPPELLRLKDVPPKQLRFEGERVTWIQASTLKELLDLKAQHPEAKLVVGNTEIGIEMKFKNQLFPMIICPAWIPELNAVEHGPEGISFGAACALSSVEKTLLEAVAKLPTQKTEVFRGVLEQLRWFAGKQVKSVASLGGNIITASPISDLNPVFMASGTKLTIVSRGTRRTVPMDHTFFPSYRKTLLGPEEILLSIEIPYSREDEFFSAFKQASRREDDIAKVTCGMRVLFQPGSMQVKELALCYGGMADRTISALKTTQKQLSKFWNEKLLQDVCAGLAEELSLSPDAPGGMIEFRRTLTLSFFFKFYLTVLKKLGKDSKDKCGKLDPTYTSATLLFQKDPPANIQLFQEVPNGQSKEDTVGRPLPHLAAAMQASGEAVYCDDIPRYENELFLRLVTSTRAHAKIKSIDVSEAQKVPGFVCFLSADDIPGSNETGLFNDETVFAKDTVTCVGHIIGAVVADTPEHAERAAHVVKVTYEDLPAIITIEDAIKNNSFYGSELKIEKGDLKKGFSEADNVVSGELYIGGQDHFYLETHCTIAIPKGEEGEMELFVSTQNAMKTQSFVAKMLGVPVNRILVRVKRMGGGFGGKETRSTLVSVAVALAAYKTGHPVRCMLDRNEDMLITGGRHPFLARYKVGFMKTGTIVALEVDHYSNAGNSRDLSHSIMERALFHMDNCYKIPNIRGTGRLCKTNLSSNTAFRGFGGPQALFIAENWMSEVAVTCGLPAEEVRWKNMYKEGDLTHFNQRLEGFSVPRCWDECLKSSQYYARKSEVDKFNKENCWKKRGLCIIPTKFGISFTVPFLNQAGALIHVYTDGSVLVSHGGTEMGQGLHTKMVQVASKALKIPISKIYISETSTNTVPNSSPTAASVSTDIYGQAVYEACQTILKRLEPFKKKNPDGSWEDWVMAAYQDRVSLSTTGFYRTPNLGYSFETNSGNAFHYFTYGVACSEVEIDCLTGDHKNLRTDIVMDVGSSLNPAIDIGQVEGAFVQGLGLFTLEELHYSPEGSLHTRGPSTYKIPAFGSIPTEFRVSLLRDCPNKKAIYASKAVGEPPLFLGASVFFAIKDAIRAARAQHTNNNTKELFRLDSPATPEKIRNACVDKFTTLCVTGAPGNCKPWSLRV

smi	Activity
Oc1cc(O)n2ncc(-c3ccc(Br)cc3)c2n1	Not Active
Oc1cc(O)n2ncc(-c3ccc4c(c3)OCO4)c2n1	Not Active
Oc1cc(O)n2ncc(Cl)c2n1	Not Active
Oc1cc(O)n2ncc(-c3cccc4ccccc34)c2n1	Not Active
O=c1[nH]c(=O)c2[nH]cnc2[nH]1	Active
Oc1cc(O)n2ncc(-c3cccnc3)c2n1	Not Active
Oc1ncnc2[nH]ncc12	Active
Cc1cccc(-c2cnn3c(O)cc(O)nc23)c1	Not Active
O=[N+]([O-])c1cnn2c(O)cc(O)nc12	Not Active
Oc1cc(O)n2ncc(-c3ccc(Cl)cc3)c2n1	Not Active
Oc1cc(O)n2ncc(Br)c2n1	Not Active
Cc1ccc(-c2cnn3c(O)cc(O)nc23)cc1	Not Active
Oc1cc(O)n2nccc2n1	Not Active
Oc1cc(O)n2ncc(-c3ccccc3)c2n1	Not Active
CC(=O)Nc1ccc(-c2cnn3c(O)cc(O)nc23)cc1	Not Active

Data credit: ChEMBL document CHEMBL3272185
